Catalogue of pKi readings, one per entry.
# target_system: Beta-secretase 2 (Homo sapiens, UniProt Q9Y5Z0)
# procedure_summary: Inhibition Assay: Previously, one of the following compounds discussed below have been studied in memapsin 2 inhibition (Ghosh et al., 2008), which the others are previously unpublished. Given the closely related substrate specificity for memapsin 1 and memapsin 2, the inventors chose to screen these previously identified memapsin 2 inhibitors for lead compounds as memapsin 1 inhibitors. Recombinant memapsin 1 ectodomain was prepared as described by Turner et al. (2002) and assayed using a commercially purchased fluorescent substrate.
Just so you know, pKi here is -log10 of the concentration in molar units; reply with that number alone.

These recorded examples may help you get a feel for the data.
{"columns": ["compound", "pKi"],
 "data": [
  ["CCCC(O)C(NCC(O)C(Cc1ccccc1)NC(=O)c1cccc(C(=O)N2CCCC2OC)c1)C(=O)NCC(C)C (centres undefined)", 7.12],
  ["CCCC(O)N(NC[C@H](Cc1ccccc1)NC(=O)c1cc2c3c(c1)c(CC)cn3CC1(CC1)S(=O)(=O)N2C)C(=O)NCC(C)C (some centres undefined)", 7.96]
]}

Prompt: Using the record for Cc1cc(C(=O)NC(Cc2ccccc2)C(O)CNC(C(=O)NCC(C)C)C(C)O)cc(C(=O)N(C)C(C)c2ccccc2)c1 (centres undefined) , report its pKi.
Completion: 9.00

Prompt: Now give it for CC(C)CNC(=O)C(NCC(O)C(Cc1ccccc1)NC(=O)c1cc(C(=O)NC(C)c2ccccc2)cc(N(C)S(C)(=O)=O)c1)C(C)O (centres undefined) too.
Completion: 7.43

----------
# target_system: Beta-secretase 2 (Homo sapiens, UniProt Q9Y5Z0)
# procedure_summary: Inhibition Assay: Previously, one of the following compounds discussed below have been studied in memapsin 2 inhibition (Ghosh et al., 2008), which the others are previously unpublished. Given the closely related substrate specificity for memapsin 1 and memapsin 2, the inventors chose to screen these previously identified memapsin 2 inhibitors for lead compounds as memapsin 1 inhibitors. Recombinant memapsin 1 ectodomain was prepared as described by Turner et al. (2002) and assayed using a commercially purchased fluorescent substrate.
Catalogue of pKi readings, one per entry.
Just so you know, pKi here is -log10 of the concentration in molar units; reply with that number alone.

These recorded examples may help you get a feel for the data.
{"columns": ["molecule", "measured_quantity", "reported_result"],
 "data": [
  ["CCc1cn2c3c(cc(C(=O)N[C@@H](Cc4ccccc4)[C@H](O)CNC(COC)c4cccc(C(F)(F)F)c4)cc13)N(C)S(=O)(=O)C1(CC1)C2 (some centres not stated)", "pKi", 6.70],
  ["CCCC(O)N(NC[C@H](Cc1ccccc1)NC(=O)c1cc2c3c(c1)c(CC)cn3CC1(CC1)S(=O)(=O)N2C)C(=O)NC(C)C (some centres not stated)", "pKi", 7.52],
  ["CSC[C@H](NC(=O)C1NOC2OCCC21)C(=O)NC(CC(C)C)[C@@H](O)CC(C)C(=O)NC(C(=O)N(C)C)C(C)C (some centres not stated)", "pKi", 7.34]
]}

Prompt: Using the record for CCCC(O)C(NCC(O)C(Cc1ccccc1)NC(=O)c1cccc(C(=O)N(C)C(C)c2ccccc2)c1)C(=O)NCC(C)C (configuration not stated) , report its pKi.
Completion: 10.70

Prompt: Now give it for Cc1ncsc1CN(C(=O)CCC(C1CCCCC1)N1Cc2cc(Oc3ccccc3)ccc2N=C1N)C1CCCCC1 (configuration not stated) too.
Completion: 7.28

Prompt: Now give it for NC1=Nc2ccc(Oc3ccccc3)cc2CN1C(CCC(=O)N(CC1CCC(=O)N1)C1CCCCC1)C1CCCCC1 (configuration not stated) too.
Completion: 7.32

Prompt: Now give it for CCc1cn2c3c(cc(C(=O)N[C@@H](Cc4ccccc4)C(O)CNCc4cccc(C(F)(F)F)c4)cc13)N(C)S(=O)(=O)C1(CC1)C2 (some centres not stated) too.
Completion: 6.28

----------
Catalogue of IC50 readings, one per entry.
# target_system: Beta-secretase 2 (Homo sapiens, UniProt Q9Y5Z0)
# procedure_summary: Inhibition Assay: Previously, one of the following compounds discussed below have been studied in memapsin 2 inhibition (Ghosh et al., 2008), which the others are previously unpublished. Given the closely related substrate specificity for memapsin 1 and memapsin 2, the inventors chose to screen these previously identified memapsin 2 inhibitors for lead compounds as memapsin 1 inhibitors. Recombinant memapsin 1 ectodomain was prepared as described by Turner et al. (2002) and assayed using a commercially purchased fluorescent substrate.
Give the quantity in nM, number only.

{"columns": ["molecule", "measured_quantity", "reported_result"],
 "data": [
  ["CC(CN1Cc2cc(Oc3ccccc3)ccc2N=C1N)C(=O)NCCC(C)(C)C (stereo not drawn)", "IC50", 500],
  ["COc1cccc(C(NCC(O)C(Cc2ccccc2)NC(=O)c2cc(C(=O)NC(C)c3ccccc3)cc(N(C)S(C)(=O)=O)c2)C(C)O)c1 (stereo not drawn)", "IC50", 350]
]}

Prompt: Using the record for COc1ccc(C(C(C)O)C(Cc2ccccc2)NC(=O)c2cc(C(=O)NC(C)c3ccccc3)cc(N(C)S(C)(=O)=O)c2)cc1 (stereo not drawn) , report its IC50.
Completion: 700

----------
# target_system: Beta-secretase 1 (Homo sapiens, UniProt P56817)
# Sequence (P56817 whole entry, the tested form may be a part): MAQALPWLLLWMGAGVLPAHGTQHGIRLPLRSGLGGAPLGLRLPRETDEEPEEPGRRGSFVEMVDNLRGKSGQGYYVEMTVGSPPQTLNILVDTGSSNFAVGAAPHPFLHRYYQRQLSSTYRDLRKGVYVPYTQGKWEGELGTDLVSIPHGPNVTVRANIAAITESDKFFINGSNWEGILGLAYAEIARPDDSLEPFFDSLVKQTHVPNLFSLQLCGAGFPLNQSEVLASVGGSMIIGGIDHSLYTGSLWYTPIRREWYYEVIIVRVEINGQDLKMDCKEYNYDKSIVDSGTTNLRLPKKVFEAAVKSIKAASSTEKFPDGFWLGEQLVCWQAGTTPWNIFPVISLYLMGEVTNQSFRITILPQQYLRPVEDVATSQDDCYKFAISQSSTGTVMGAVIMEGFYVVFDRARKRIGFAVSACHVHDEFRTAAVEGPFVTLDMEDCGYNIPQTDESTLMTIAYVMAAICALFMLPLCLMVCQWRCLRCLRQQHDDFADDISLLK
# procedure_summary: Inhibition Assay: Previously, one of the following compounds discussed below have been studied in memapsin 2 inhibition (Ghosh et al., 2008), which the others are previously unpublished. Given the closely related substrate specificity for memapsin 1 and memapsin 2, the inventors chose to screen these previously identified memapsin 2 inhibitors for lead compounds as memapsin 1 inhibitors. Recombinant memapsin 1 ectodomain was prepared as described by Turner et al. (2002) and assayed using a commercially purchased fluorescent substrate.
Catalogue of pKi readings, one per entry.
Just so you know, pKi here is -log10 of the concentration in molar units; reply with that number alone.

These recorded examples may help you get a feel for the data.
{"columns": ["molecule", "target_system", "pKi"],
 "data": [
  ["CCCC(O)C(NCC(O)C(Cc1ccccc1)NC(=O)c1cccc(C(=O)N2CCCC2OC)c1)C(=O)NCC(C)C (stereo unspecified)", "Beta-secretase 1 (Homo sapiens, UniProt P56817)", 6.57],
  ["CCCC(O)C(NCC(O)C(Cc1ccccc1)NC(=O)c1cc(C)cc(C(=O)N(C)C(C)c2ccccc2)c1)C(=O)NCC(C)C (stereo unspecified)", "Beta-secretase 1 (Homo sapiens, UniProt P56817)", 6.25],
  ["Cc1cc(C(=O)NC(Cc2ccccc2)C(O)CNC(C(=O)NCC(C)C)C(C)O)cc(C(=O)N(C)C(C)c2ccccc2)c1 (stereo unspecified)", "Beta-secretase 1 (Homo sapiens, UniProt P56817)", 5.78]
]}

Prompt: Using the record for CCCC(O)C(NCC(O)C(Cc1ccccc1)NC(=O)c1cc(C)cc(C(=O)N2CCCC2OC)c1)C(=O)NCC(C)C (stereo unspecified) , report its pKi.
Completion: 8.18

Prompt: Now give it for CCCC(O)C(NCC(O)C(Cc1ccccc1)NC(=O)c1cccc(C(=O)N(C)C(C)c2ccccc2)c1)C(=O)NCC(C)C (stereo unspecified) too.
Completion: 5.28

Prompt: Now give it for CC(C)CNC(=O)C(NCC(O)C(Cc1ccccc1)NC(=O)c1cccc(C(=O)N(C)C(C)c2ccccc2)c1)C(C)O (stereo unspecified) too.
Completion: 5.24

----------
# target_system: Beta-secretase 2 (Homo sapiens, UniProt Q9Y5Z0)
# Sequence (Q9Y5Z0 whole entry): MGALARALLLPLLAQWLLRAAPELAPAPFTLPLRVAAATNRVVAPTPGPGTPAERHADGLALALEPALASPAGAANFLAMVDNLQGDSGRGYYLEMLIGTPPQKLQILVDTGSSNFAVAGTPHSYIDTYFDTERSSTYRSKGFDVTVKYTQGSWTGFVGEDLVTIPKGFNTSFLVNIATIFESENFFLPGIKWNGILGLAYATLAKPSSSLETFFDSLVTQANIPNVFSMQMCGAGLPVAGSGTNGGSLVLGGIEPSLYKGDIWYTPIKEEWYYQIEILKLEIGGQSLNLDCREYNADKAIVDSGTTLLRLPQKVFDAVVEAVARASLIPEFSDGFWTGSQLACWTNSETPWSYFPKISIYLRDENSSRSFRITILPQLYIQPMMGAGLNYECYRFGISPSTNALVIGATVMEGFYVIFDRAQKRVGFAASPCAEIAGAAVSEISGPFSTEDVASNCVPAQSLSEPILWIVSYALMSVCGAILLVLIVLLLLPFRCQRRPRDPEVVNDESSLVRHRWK
# procedure_summary: Inhibition Assay: Previously, one of the following compounds discussed below have been studied in memapsin 2 inhibition (Ghosh et al., 2008), which the others are previously unpublished. Given the closely related substrate specificity for memapsin 1 and memapsin 2, the inventors chose to screen these previously identified memapsin 2 inhibitors for lead compounds as memapsin 1 inhibitors. Recombinant memapsin 1 ectodomain was prepared as described by Turner et al. (2002) and assayed using a commercially purchased fluorescent substrate.
measured_quantity: Ki (nM)
Give the quantity in nM, number only.

These recorded examples may help you get a feel for the data.
{"columns": ["compound", "Ki, nM"],
 "data": [
  ["COCC(NC(=O)OCC(C1CCCCC1)N1Cc2cc(Oc3ccccc3)ccc2N=C1N)C(=O)N(C)C (centres undefined)", 350],
  ["CC(C)CNC(=O)C(NCC(O)C(Cc1ccccc1)NC(=O)c1cc(C(=O)NC(C)c2ccc(I)cc2)cc(N(C)S(C)(=O)=O)c1)C(C)O (centres undefined)", 89],
  ["CC(C)CC(NC(=O)[C@H](CS(C)(=O)=O)NC(=O)C1NOC2OCCC21)[C@@H](O)CC(C)C(=O)NC(C(=O)N(C)C)C(C)C (some centres undefined)", 53]
]}

In the following, a different compound is considered.
Prompt: Using the record for CCCC(O)C(NCC(O)C(Cc1ccccc1)NC(=O)c1cc(C)cc(C(=O)N2CCCC2OC)c1)C(=O)NCC(C)C (centres undefined) , report its Ki.
Completion: 19.7
